Reference source for all entries: paper PMC10974275

# procedure summary: Single-dose pharmacokinetics of concomitant cannabidiol product and kratom product
# Format: in vivo, male Sprague-Dawley rats
# measurement conditions: male, Sprague-Dawley, rat, plasma, po; Single-Dose; mean ± SEM; read-out: CL/F (apparent oral clearance) (converted)
# Protocol: Male Sprague-Dawley rats (weight 250 ± 25 g) were obtained from Envigo (Indianapolis, IN, USA) with indwelling jugular vein catheters. Animals were acclimated for ≥72 h in a temperature- and humidity-controlled vivarium on a 12 h light/dark cycle. […] Samples were analyzed using previously validated ultraperformance liquid chromatography-tandem mass spectrometry (UPLC-MS/MS) methods for the quantification of cannabinoids and alkaloids in rat plasma. […]
readout type: CL/F (mL/min/kg)
Numbers only, in mL/min/kg.

compound: C=C(C)[C@@H]1CCC(C)=C[C@H]1c1c(O)cc(CCCCC)cc1O [Cannabidiol]
result units: mL/min/kg
CL/F: 192

# next compound below
For record CC[C@@H]1CN2CCc3c([nH]c4cccc(OC)c34)[C@@H]2C[C@@H]1/C(=C\OC)C(=O)OC [Mitragynine, mitragynine] the listed CL/F is 38.3

---

# procedure summary: Multiple-dose (steady-state) pharmacokinetics of concomitant cannabidiol and kratom product
# Assay type: in vivo, male Sprague-Dawley rats
# measurement conditions: male, Sprague-Dawley, rat; 5-day q12 h oral 25 mg/kg cannabidiol and kratom product (Eq. 4.7 mg/kg mitragynine); maximum plasma concentration at steady-state; mean ± SEM
readout type: Cmax at 5 days

compound: CC[C@@H]1CN2CCc3c([nH]c4cccc(OC)c34)[C@@H]2C[C@@H]1/C(=C\OC)C(=O)OC [Mitragynine, mitragynine]
value: 218 ng/mL

# next compound below
For record C=C(C)[C@@H]1CCC(C)=C[C@H]1c1c(O)cc(CCCCC)cc1O [Cannabidiol] the listed Cmax at 5 days is 489 ng/mL

---

# procedure summary: Single-dose pharmacokinetics of concomitant cannabidiol product and kratom product
# Type: in vivo, male Sprague-Dawley rats
# measurement conditions: male, Sprague-Dawley, rat; mitragynine in plasma; single concomitant oral dose of cannabidiol product (50 mg/kg) and kratom product (9.4 mg/kg mitragynine); n = 5; mean ± SEM; read-out: AUC0–24
readout type: AUC(0-t)
Answer format: value, then unit.

For record CC[C@@H]1CN2CCc3c([nH]c4cccc(OC)c34)[C@@H]2C[C@@H]1/C(=C\OC)C(=O)OC [Mitragynine, mitragynine] the listed AUC(0-t) is 5350 ng·h/mL

---

# procedure summary: Multiple-dose (steady-state) pharmacokinetics of concomitant cannabidiol and kratom product
# Assay type: in vivo, male Sprague-Dawley rats
# measurement conditions: male, Sprague-Dawley, rat, plasma, po; Multiple-Dose; mean ± SEM; read-out: V/F (apparent volume of distribution)
readout type: Vd/F at 5 days (L/kg)
Numbers only, in L/kg.

smiles representation: C=C(C)[C@@H]1CCC(C)=C[C@H]1c1c(O)cc(CCCCC)cc1O
value: 192

For record CC[C@@H]1CN2CCc3c([nH]c4cccc(OC)c34)[C@@H]2C[C@@H]1/C(=C\OC)C(=O)OC the listed Vd/F at 5 days is 28.7

---

# procedure summary: Single oral dose pharmacokinetics of cannabidiol product alone
# Assay type: in vivo, male Sprague-Dawley rats
# measurement conditions: male, Sprague-Dawley, rat; cannabidiol in plasma; single oral dose of cannabidiol product alone (50 mg/kg); n = 4; mean ± SEM
readout type: Tmax
Answer format: value, then unit.

For record C=C(C)[C@@H]1CCC(C)=C[C@H]1c1c(O)cc(CCCCC)cc1O the listed Tmax is 3.8 h
